Assay: Drug absorption in SD rat, intragastric administration (ig)
Type: in vivo
Settings: male, SD, rat, plasma, po, 30 mg/kg; read-out: Cmax
measurement-kind: Cmax (ng/mL)
Record the value in ng/mL, omitting the unit from your answer.

The reported Cmax of the molecule C=CC(=O)Nc1ccc2ncnc(Nc3ccc(OCc4cccc(F)c4)c(Cl)c3)c2c1 was 32

----------
Experiment: Solubility test in water and in methanol at room temperature
Assay type: physicochemical
Conditions: thermodynamic from solid, water, read-out: Solubility in water(/mL)
measurement-kind: solubility at 3 h

solubility at 3 h reported for this compound C=CC(=O)Nc1ccc2ncnc(Nc3ccc(OCc4cccc(F)c4)c(Cl)c3)c2c1 : < 0.01 µg/mL

----------
Tested on: human epidermatoid squamous cancer cell A431
Assay: Inhibition of proliferation of tumor cell lines (MTT), A431
Type: cell-based
Settings: 72 h, listed as hydrochloride
measurement-kind: pIC50
pIC50 here: minus log base 10 of the concentration, concentration in moles per litre.

GET /values?item= C=CC(=O)Nc1ccc2ncnc(Nc3ccc(OCc4cccc(F)c4)c(Cl)c3)c2c1.Cl [Hydrochloride] &system= human epidermatoid squamous cancer cell A431 returns pIC50: 6.08

----------
Assay: Drug absorption in SD rat, intragastric administration (ig)
Assay type: in vivo
Details: male, SD, rat, plasma, po, 30 mg/kg; read-out: Tmax
measurement-kind: Tmax (min)
Response body: numeric value in min, unit text excluded.

For C=CC(=O)Nc1ccc2ncnc(Nc3ccc(OCc4cccc(F)c4)c(Cl)c3)c2c1 the compound record lists Tmax as 45

----------
Test: Drug absorption in SD rat, intragastric administration (ig)
Format: in vivo
Settings: male, SD, rat, plasma, po, 30 mg/kg
measurement-kind: half-life (h)
Reply numerically in h, unit not repeated.

Reported half-life ( C=CC(=O)Nc1ccc2ncnc(Nc3ccc(OCc4cccc(F)c4)c(Cl)c3)c2c1 ) = 1.81
